Measured values drawn from patent US20180009892A1 for this set.

Molecular target: T1, ROR1 extracellular domain Fc fusion:Fc heterodimer, monomer (human)
T1 construct: Heterodimer of one ROR1 ECD-Fc chain and one Fc chain; also called ROR1 monomer; hROR1 monomeric ECD-Fc fusion protein; not shown: Fc part; Fc alone
T1 sequence (Q01973 30-406, one chain of several): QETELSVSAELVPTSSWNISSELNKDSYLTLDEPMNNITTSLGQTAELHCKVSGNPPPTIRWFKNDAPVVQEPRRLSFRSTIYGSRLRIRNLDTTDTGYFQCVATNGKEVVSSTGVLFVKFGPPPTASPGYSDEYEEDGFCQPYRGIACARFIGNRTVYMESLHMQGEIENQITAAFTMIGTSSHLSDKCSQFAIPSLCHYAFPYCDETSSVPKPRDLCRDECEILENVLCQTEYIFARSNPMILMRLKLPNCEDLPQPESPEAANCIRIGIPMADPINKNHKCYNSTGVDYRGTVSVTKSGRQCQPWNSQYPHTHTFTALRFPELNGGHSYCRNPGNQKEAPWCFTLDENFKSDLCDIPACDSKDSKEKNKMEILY
Assay: SPR, immobilised ROR1 monomer, antibody injected, 1:1 model
Where koff equals or exceeds 0.002 s⁻¹, the correct label is t; where it does not, the label is f.

See these solved cases before continuing.
binder	discrete_label
Antibody 601-4 (antibody, V domains shown) VH: EVQLVQSGPGLVKPSGTLSLTCAVSGGSISSSNWWSWVRQPPGKGLEWIGEIYHSGSTNYNPSLKSRVTISVDKSKNQFSLKLGSVTAADTATYYCARDLWLGEWDLWGQGTLVTVSS VL: QSVLTQPPSASGAPGQRVTISCSGGISNVGTNGVNWYQHLPGTAPKLLVDAMNQRPSGVPDRFSGSRSGTSGSLAITGLRSEDEADYYCATWDDSLSGVLFGGGTKLTVLG	f
Antibody 601-147 (antibody, V domains shown) VH: QMQLVQSGAEVKKPGASVKVSCKASGYTFSRYYIHWVRQAPGQGLEWMGLINPGGGSTNYAQKFQGRVTMTRDTSTNTVYLELSSLRSDDTAVYYCARDYGTIDARRFDFWGQGTLVTVSS VL: QSALTQPPSASGTPGQRVTISCSGSSSNIGSNYVYWYQQLPGTAPKLLIYRNNQRPSGVPDRFSGSKSGTSASLAISGLRSEDEADYYCAAWDDSLSGYVFGTGTKVTVL	f
Antibody 601-87 (antibody, V domains shown) VH: QVQLQESGPGLVKSSETLSLTCTVSGGSMNNYYWSWIRQPAGKGLEWMGRIYSSGSTNYNPALKSRVTMSVDTSKNQFSLNLSSVTAADTAIYYCARASWSGTYWALFDYWGQGTLVTVSS VL: ETTLTQSPAFMSATPGDKVNISCKASQDIDDDLNWYQQKPGEAPILIIQEATTLVPGIPPRFSGSGFGTDFTLTINSMQSEDVAYYFCLQHDNFPPTFGQGTKVEIK	f
Antibody 601-112 (antibody, V domains shown) VH: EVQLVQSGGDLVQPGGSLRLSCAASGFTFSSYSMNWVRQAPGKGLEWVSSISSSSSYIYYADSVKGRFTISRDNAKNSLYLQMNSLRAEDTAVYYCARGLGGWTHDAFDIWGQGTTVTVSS VL: QSALTQPASVSGSPGQSITISCTGTSSDVGGYNYVSWYQQHPGKAPKLMIYDVSKRPSGVSNRFSGSKSGNTASLTISGLQAEDEADYYCSSYTGRSTVFGGGTKLTVL	f

Please examine the following record next.
Query :: State whether the measured koff reaches 0.002 s⁻¹, counting equality as reaching it, for Antibody 601-70 (antibody, V domains shown) VH: EVQLVQSGAELKKPGSSVRVSCKTSGGSFKTHGISWVRQAPGQGLEWMGWINPNSGGALYVDNFQGRATMTRDTSINTAYMELRSLSSDDTAVYYCARGMADLIDVFDIWGQGTMVTVSS VL: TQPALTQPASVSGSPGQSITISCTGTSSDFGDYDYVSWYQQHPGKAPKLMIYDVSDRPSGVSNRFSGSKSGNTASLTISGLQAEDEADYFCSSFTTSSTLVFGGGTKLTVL
Result :: t
